measured.on: canine CD3 on canine T cells (canine PBMC) (canine, UniProt P27597 22-202)
Sequence (P27597 22-202 limits assumed, chain 1 of 3): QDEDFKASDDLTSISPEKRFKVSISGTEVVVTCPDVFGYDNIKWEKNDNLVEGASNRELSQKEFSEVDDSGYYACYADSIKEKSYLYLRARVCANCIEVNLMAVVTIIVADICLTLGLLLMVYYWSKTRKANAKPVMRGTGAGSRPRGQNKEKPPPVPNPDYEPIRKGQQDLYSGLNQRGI
Sequence (chain, as listed by the source limits assumed, chain 2 of 3): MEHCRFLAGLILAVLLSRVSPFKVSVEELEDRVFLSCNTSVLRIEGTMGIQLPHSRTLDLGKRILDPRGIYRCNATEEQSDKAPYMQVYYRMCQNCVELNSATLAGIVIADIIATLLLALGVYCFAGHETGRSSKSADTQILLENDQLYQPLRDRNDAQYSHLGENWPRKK
Sequence (chain, as listed by the source limits assumed, chain 3 of 3): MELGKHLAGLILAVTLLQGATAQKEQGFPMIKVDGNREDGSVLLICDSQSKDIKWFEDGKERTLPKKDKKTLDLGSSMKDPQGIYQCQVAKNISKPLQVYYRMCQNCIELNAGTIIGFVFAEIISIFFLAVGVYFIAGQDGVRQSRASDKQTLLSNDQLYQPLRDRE
experimental.details: cell-based or functional assay
measured.property: CD25 Activation, Day 6, PB
Output: the number by itself.

Here are 2 binders together with their reported answers.
* PMX159 (monospecific anti-canine CD3, canine IgG-B effector function deficient Fc) (antibody, V domains shown) VH: ELTLQESGPGLVKPSQTLSLTCVVSGGSVTRSYYWNWIRQRPGRGLEWMGYWTGSTIYNPTFQGRISITADTAKSQFSLQLRSMTTEDTAMYFCAREGGKSLGAFAYWGQGTLVTVSS VL: SYVLTQLPSKNVTLKQPAHITCGGDKIGSKNVHWYQQKLGQAPVMIIYYDSSRPTGIPERFSGANSGNTATLTISGALAEDEADYYCQVWDSSAKAAVFGGGTHLTVL | 11.5
* PMX179 (monospecific anti-canine CD3, canine IgG-B effector function deficient Fc) (antibody, V domains shown) VH: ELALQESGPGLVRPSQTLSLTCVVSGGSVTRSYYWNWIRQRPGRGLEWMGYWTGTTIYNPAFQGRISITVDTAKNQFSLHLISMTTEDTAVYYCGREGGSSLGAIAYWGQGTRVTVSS VL: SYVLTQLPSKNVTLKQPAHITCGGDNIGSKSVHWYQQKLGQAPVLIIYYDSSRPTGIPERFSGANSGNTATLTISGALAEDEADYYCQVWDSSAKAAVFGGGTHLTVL | 22

Query binder follows.
Challenge: Read off the recorded CD25 Activation, Day 6, PB for PMX178 (monospecific anti-canine CD3, canine IgG-B effector function deficient Fc) (antibody, V domains shown) VH: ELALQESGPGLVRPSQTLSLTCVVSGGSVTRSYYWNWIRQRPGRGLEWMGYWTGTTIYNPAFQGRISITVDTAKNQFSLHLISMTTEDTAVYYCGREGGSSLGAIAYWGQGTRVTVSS VL: SYVLTQLPSKNVTLKQPAHITCGGDNIGRKSVHWYQQKLGQAPVLIIYYDSSRPTGIPERFSGANSGNTATLTISGALAEDEADYYCQVWDSSAKAAVFGGGTHLTVL
Response given: 20.5
